The reported measurements were obtained from patent US20070117743A1.

- Tested on: HeLa
- EXPERIMENT SUMMARY: SRB colorimetric assay of cell growth and viability, HeLa
- Format: cell-based, human
- CONDITION LABEL: 48 hours exposure; read-out: LC50 HELA
Where a SMILES comes first, the peptide text is derived from it. Bridges are numbered along the chain shown (N, C = ends). [ ]: non-standard residue; d: D form. The star is where a group is joined. d(aIle) = CC[C@H](C)[C@@H](N)C(=O)O; d(aThr) = C[C@@H](O)[C@@H](N)C(=O)O; Hexanoyl(5-Me) = CC(C)CCCC(=O)*; Orn = NCCC[C@H](N)C(=O)O; Dhb = C/C=C(\N)C(=O)O
MEASURED ATTRIBUTE: CC50 (µM)
Write the number in µM without appending the unit.

C/C=C1\NC(=O)[C@H](Cc2ccccc2)NC(=O)[C@@H](C(C)C)NC(=O)[C@@H]([C@@H](C)CC)NC(=O)[C@H](NC(=O)[C@H](NC(=O)[C@H](CCCN)NC(=O)[C@H]2CCCN2C(=O)[C@H](NC(=O)[C@H](CCC(=O)O)NC(=O)[C@@H](NC(=O)[C@H](NC(=O)CCCC(C)C)C(C)C)[C@@H](C)O)C(C)C)[C@@H](C)CC)[C@@H](C)OC(=O)[C@H](C(C)C)NC1=O [Compound 51, [Glu^11]-KF] ({Hexanoyl(5-Me)}-[dV]TE[dV][dP][Orn][d(aIle)][d(aThr)][d(aIle)][dV]F[Dhb]V; ester 8-C) | 6.63

Would you kindly look at the next entry?
IN: Consider the molecule shown here: C/C=C1\NC(=O)[C@H](Cc2ccccc2)NC(=O)[C@@H](C(C)C)NC(=O)[C@@H]([C@@H](C)CC)NC(=O)[C@H](NC(=O)[C@H](NC(=O)[C@H](CCCN)NC(=O)[C@H]2CCCN2C(=O)[C@H](NC(=O)[C@@H](NC(=O)[C@@H](NC(=O)[C@H](NC(=O)c2ccccc2)C(C)C)[C@@H](C)O)C(C)C)C(C)C)[C@@H](C)CC)[C@@H](C)OC(=O)[C@H](C(C)C)NC1=O [Compound 20, [Bza^14]-KF] What is its recorded CC50?
OUT: 4.76

====

Quick reference: GI50 of the listed items.
- Tested on: SK-BR-3
- EXPERIMENT SUMMARY: SRB colorimetric assay of cell growth and viability, SK-BR-3
- Assay type: cell-based, human
- CONDITION LABEL: 48 hours exposure
- Protocol: The finality of this assay is to interrupt the growth of a “in vitro” tumor cell culture by means a continued exhibition of the cells to the sample to be testing. […] Cells are seeded in 96 well microtiter plates, at 5×10^3 cells per well in aliquots of 195 μL medium, and they are allowed to attach to the plate surface by growing in drug free medium for 18 hours. […] Optical densities are read on a automated spectrophotometric plate reader at a single wavelength of 490 nm. […]
Where a SMILES comes first, the peptide text is derived from it. Bridges are numbered along the chain shown (N, C = ends). [ ]: non-standard residue; d: D form. The star is where a group is joined. d(aIle) = CC[C@H](C)[C@@H](N)C(=O)O; d(aThr) = C[C@@H](O)[C@@H](N)C(=O)O; Hexanoyl(5-Me) = CC(C)CCCC(=O)*; Orn = NCCC[C@H](N)C(=O)O; Aib = CC(C)(N)C(=O)O
Write the number in nM without appending the unit.

CC[C@H](C)[C@@H](NC(=O)[C@H](CCCN)NC(=O)[C@H]1CCCN1C(=O)[C@H](NC(=O)[C@@H](NC(=O)[C@@H](NC(=O)[C@H](NC(=O)CCCC(C)C)C(C)C)[C@@H](C)O)C(C)C)C(C)C)C(=O)N[C@H]1C(=O)N[C@H]([C@@H](C)CC)C(=O)N[C@H](C(C)C)C(=O)N[C@@H](Cc2ccccc2)C(=O)NC(C)(C)C(=O)N[C@@H](C(C)C)C(=O)O[C@@H]1C [Compound 66, [Aib^2]-KF] ({Hexanoyl(5-Me)}-[dV]TV[dV][dP][Orn][d(aIle)][d(aThr)][d(aIle)][dV]F[Aib]V; ester 8-C) | 1490

IN: Consider the compound shown here: C/C=C1\NC(=O)[C@H](Cc2ccccc2)NC(=O)[C@@H](C(C)C)NC(=O)[C@@H]([C@@H](C)CC)NC(=O)[C@H](NC(=O)[C@H](NC(=O)[C@H](CCCCN)NC(=O)[C@H]2CCCN2C(=O)[C@H](NC(=O)[C@@H](NC(=O)[C@@H](NC(=O)[C@H](NC(=O)CC[C@@H](C)CC)C(C)C)[C@@H](C)O)C(C)C)C(C)C)[C@@H](C)CC)[C@@H](C)OC(=O)[C@H](C(C)C)NC1=O [Compound 30, [Lys^8, (4S)-MeHex^14]-KF] What is its recorded GI50?
OUT: 159

====

Quick reference: CC50 of the listed items.
- Tested on: HeLa-APL
- EXPERIMENT SUMMARY: SRB colorimetric assay of cell growth and viability, HeLa-APL
- Format: cell-based, human
- CONDITION LABEL: HELA-APL; 48 hours exposure; read-out: LC50 HELA-APL
Where a SMILES comes first, the peptide text is derived from it. Bridges are numbered along the chain shown (N, C = ends). [ ]: non-standard residue; d: D form. The star is where a group is joined. Bip = N[C@@H](Cc1ccc(-c2ccccc2)cc1)C(=O)O; d(aIle) = CC[C@H](C)[C@@H](N)C(=O)O; d(aThr) = C[C@@H](O)[C@@H](N)C(=O)O; Hexanoyl(5-Me) = CC(C)CCCC(=O)*; Phg = N[C@H](C(=O)O)c1ccccc1; Orn = NCCC[C@H](N)C(=O)O; Dhb = C/C=C(\N)C(=O)O
Write the number in µM without appending the unit.

// known answers, use as guide
C/C=C1\NC(=O)[C@H](Cc2ccc(-c3ccccc3)cc2)NC(=O)[C@@H](C(C)C)NC(=O)[C@@H]([C@@H](C)CC)NC(=O)[C@H](NC(=O)[C@H](NC(=O)[C@H](CCCN)NC(=O)[C@H]2CCCN2C(=O)[C@H](NC(=O)[C@@H](NC(=O)[C@@H](NC(=O)[C@H](NC(=O)CCCC(C)C)C(C)C)[C@@H](C)O)C(C)C)C(C)C)[C@@H](C)CC)[C@@H](C)OC(=O)[C@H](C(C)C)NC1=O [Compound 86, [Bip^3]-KF] ({Hexanoyl(5-Me)}-[dV]TV[dV][dP][Orn][d(aIle)][d(aThr)][d(aIle)][dV][Bip][Dhb]V; ester 8-C) | 6.07
C/C=C1\NC(=O)[C@H](c2ccccc2)NC(=O)[C@@H](C(C)C)NC(=O)[C@@H]([C@@H](C)CC)NC(=O)[C@H](NC(=O)[C@H](NC(=O)[C@H](CCCN)NC(=O)[C@H]2CCCN2C(=O)[C@H](NC(=O)[C@@H](NC(=O)[C@@H](NC(=O)[C@H](NC(=O)CCCC(C)C)C(C)C)[C@@H](C)O)C(C)C)C(C)C)[C@@H](C)CC)[C@@H](C)OC(=O)[C@H](C(C)C)NC1=O [Compound 87, [Phg^3]-KF] ({Hexanoyl(5-Me)}-[dV]TV[dV][dP][Orn][d(aIle)][d(aThr)][d(aIle)][dV][Phg][Dhb]V; ester 8-C) | 1.9
C/C=C1\NC(=O)[C@H](Cc2ccccc2)NC(=O)[C@@H](C(C)C)NC(=O)[C@@H]([C@@H](C)CC)NC(=O)[C@H](NC(=O)[C@H](NC(=O)[C@H](CCCN)NC(=O)[C@H]2CCCN2C(=O)[C@H](NC(=O)[C@@H](NC(=O)[C@H](CCCN)NC(=O)[C@H](NC(=O)CCCC(C)C)C(C)C)C(C)C)C(C)C)[C@@H](C)CC)[C@@H](C)OC(=O)[C@H](C(C)C)NC1=O [Compound 116, [Orn^12]-KF] ({Hexanoyl(5-Me)}-[dV][Orn]V[dV][dP][Orn][d(aIle)][d(aThr)][d(aIle)][dV]F[Dhb]V; ester 8-C) | 6.71

IN: Consider the compound shown here: C/C=C1\NC(=O)[C@H](Cc2ccccc2)NC(=O)[C@@H](C(C)C)NC(=O)[C@@H]([C@@H](C)CC)NC(=O)[C@H](NC(=O)[C@H](NC(=O)[C@H](CCCN)NC(=O)[C@H]2CCCCN2C(=O)[C@H](NC(=O)[C@@H](NC(=O)[C@@H](NC(=O)[C@H](NC(=O)CC[C@@H](C)CC)C(C)C)[C@@H](C)O)C(C)C)C(C)C)[C@@H](C)CC)[C@@H](C)OC(=O)[C@H](C(C)C)NC1=O [Compound 60, [D-Pip^9, (4S)-MeHex^14]-KF] What is its recorded CC50?
OUT: 6.7
